# ASSAY SYSTEM: Alpha-galactosidase (Coffea arabica) (UniProt Q42656)
# Sequence (Q42656 whole entry, looked up): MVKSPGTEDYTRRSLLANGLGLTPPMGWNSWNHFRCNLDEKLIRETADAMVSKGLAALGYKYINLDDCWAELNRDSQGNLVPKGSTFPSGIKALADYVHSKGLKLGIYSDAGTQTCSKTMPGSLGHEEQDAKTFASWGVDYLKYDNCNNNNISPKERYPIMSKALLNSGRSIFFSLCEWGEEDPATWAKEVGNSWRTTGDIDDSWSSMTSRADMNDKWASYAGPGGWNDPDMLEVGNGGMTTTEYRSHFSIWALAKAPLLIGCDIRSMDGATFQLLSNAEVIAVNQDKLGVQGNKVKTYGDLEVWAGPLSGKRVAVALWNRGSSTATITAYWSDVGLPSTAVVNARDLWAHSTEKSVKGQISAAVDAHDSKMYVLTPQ
# ASSAY PROCEDURE: Counterscreen for Glucocerebrosidase Inhibitors: qHTS Assay for Coffee Bean alpha-Galactosidase at pH 5.9 (AID 998)
# EXPERIMENTAL CONTEXT: coffee bean alpha-galactosidase enzyme assay; series mostly up to 76.9 µM
Active and inactive are the calls of the source. Calls come from the whole dose curve; as a rule, active = well fitted curve in the direction sought with a large enough effect; inactive = no such curve, though single readings can be large or run the other way.
VALUE TYPE: outcome

Worked examples, 4 molecules total:
- SMILES STRUCTURE: "NCCS"
  outcome: "inactive"
- SMILES STRUCTURE: "O=C(O)Cc1cnc[nH]1"
  outcome: "inactive"
- SMILES STRUCTURE: "CCCN(CCC)[C@@H]1CCc2ccc(O)cc2C1"
  outcome: "inactive"
- SMILES STRUCTURE: "CC(=O)NCCc1c[nH]c2ccccc12"
  outcome: "inactive"

Read the entry CCN(CC)CCNC(=O)c1ccc(NC(C)=O)cc1 and write its reported outcome.
inactive

Return the recorded outcome value; entry: CC(C)Oc1cccnc1N(C)C1CCN(Cc2ccccc2)CC1
inactive

State its outcome for this molecule: C[C@]12N[C@H](Cc3ccccc31)c1ccccc12
inactive

For the molecule C[C@@H]1O[C@H](C[N+](C)(C)C)C[C@H]1O , give its measured outcome value.
inactive

Fill in reported outcome for this entry: C[C@]12C[C@H](O)[C@H]3[C@@H](CCC4=CC(=O)CC[C@@]43C)[C@@H]1CC[C@@H]2C(=O)CO
inactive

Query outcome for CCCCc1ccc(C(=O)O)nc1
inactive

Complete the entry with outcome for CC(C)(Sc1ccc(CCN(CCCCC2CCCCC2)C(=O)NC2CCCCC2)cc1)C(=O)O
inactive

Read off the recorded outcome for COc1ccc2c(c[n+](C)c3c4cc5c(cc4ccc23)OCO5)c1OC
inactive

Hello, the source for this data is PubChem BioAssay (NCATS), in case you need it.
